Tested on: ATP;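 note: ATP exposure 15 min at 22 °C before imaging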
assay remarks: switch fluorescence ratio, 500 uM ATP over buffer (Cy3 cluster intensity, sum of 5 cycles each) (fold (ratio)); higher = stronger signal-on switching upon ATP binding; sequences stand for … in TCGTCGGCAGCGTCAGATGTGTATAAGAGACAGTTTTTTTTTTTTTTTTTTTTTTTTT…TC
experimental context: aptamer strand: ATP DNA aptamer (quencher-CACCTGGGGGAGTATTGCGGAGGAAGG + anchor), 100 nM annealed; ATP concentration: 500 uM

polymer sequence: AAATATTTAT
switch fluorescence ratio: 0.971

polymer sequence: CAATGTGCAG
switch fluorescence ratio: 0.988

polymer sequence: TAGGAAGGAG
switch fluorescence ratio: 0.98

polymer sequence: TAGCGTAAAT
switch fluorescence ratio: 0.991

polymer sequence: AAACGGCGGC
switch fluorescence ratio: 1.05

polymer sequence: AAATCGGGAA
switch fluorescence ratio: 1.34

polymer sequence: TCCCTTTCGA
switch fluorescence ratio: 1.21

polymer sequence: CGGGAGTTCG
switch fluorescence ratio: 0.992

polymer sequence: GATTTATGAC
switch fluorescence ratio: 1.02

polymer sequence: CTATGGCCGG
switch fluorescence ratio: 0.969

polymer sequence: CATGCACTAT
switch fluorescence ratio: 1.08

polymer sequence: ACACTCTTGA
switch fluorescence ratio: 1.03

polymer sequence: GCCTTTCAAT
switch fluorescence ratio: 1.02

polymer sequence: TTAATTAATG
switch fluorescence ratio: 1.05

polymer sequence: TGTGAAGGTT
switch fluorescence ratio: 0.986

polymer sequence: ATTTTTATTT
switch fluorescence ratio: 1.07

polymer sequence: ACAGTATGGC
switch fluorescence ratio: 0.952

polymer sequence: AGGATAAGGA
switch fluorescence ratio: 0.987

polymer sequence: GCAACGGGTC
switch fluorescence ratio: 1.03

polymer sequence: GAAGGTGAGT
switch fluorescence ratio: 1.03

* * *

System: ATP;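 note: ATP exposure 15 min at 22 °C before imaging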
assay remarks: switch fluorescence ratio, 500 uM ATP over buffer (Cy3 cluster intensity, sum of 5 cycles each) (fold (ratio)); higher = stronger signal-on switching upon ATP binding; sequences stand for … in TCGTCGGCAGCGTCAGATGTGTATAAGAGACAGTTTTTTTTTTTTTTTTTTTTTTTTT…TC
experimental context: aptamer strand: ATP DNA aptamer (quencher-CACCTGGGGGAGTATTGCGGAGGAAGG + anchor), 100 nM annealed; ATP concentration: 500 uM
Mark 0 (no) for switch fluorescence ratio values under 1, and 1 (yes) for everything at or above.

polymer sequence: GAGGGGGTCC
assigned class: 1 (yes)

polymer sequence: GACACTCAGG
assigned class: 1 (yes)

polymer sequence: GGCCCTCTGA
assigned class: 1 (yes)

polymer sequence: AATTTGGTAC
assigned class: 1 (yes)

polymer sequence: GGTGGACACT
assigned class: 1 (yes)

polymer sequence: AGACTGATAC
assigned class: 1 (yes)

polymer sequence: AGGTTAGGGT
assigned class: 0 (no)

polymer sequence: AAACCTGGGT
assigned class: 1 (yes)

polymer sequence: TTCGTTATTA
assigned class: 1 (yes)

polymer sequence: TGTGATGATG
assigned class: 0 (no)

polymer sequence: GTGATTGGAG
assigned class: 0 (no)

polymer sequence: GACTTAGCTT
assigned class: 1 (yes)

polymer sequence: GGTGGGGGTA
assigned class: 1 (yes)

polymer sequence: TTGGTGTCTT
assigned class: 0 (no)

polymer sequence: GTTGGAAGAT
assigned class: 1 (yes)

polymer sequence: CGGCCCAAGG
assigned class: 1 (yes)
